# tested_system: T1, Extracellular domain of cyno PD1 (cPD1-ECD) (Macaca fascicularis (cynomolgus))
# T1 construct: Expressed with a hexahistidine tag or as Fc fusion; also called cynoPD1-ECD; cynoPD-1-ECD
# T1 chain: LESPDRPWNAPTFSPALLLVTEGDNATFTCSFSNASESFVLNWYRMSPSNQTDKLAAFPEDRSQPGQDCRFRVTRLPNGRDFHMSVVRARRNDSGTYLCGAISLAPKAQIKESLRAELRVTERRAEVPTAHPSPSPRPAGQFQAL
# assay_details: SPR ProteOn, captured mAb, cynoPD1-ECD analyte;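 note: ProteOn XPR36 SPR with antibodies held by anti-IgG Fc on a GLC chip, kinetic constants obtained by fitting to a Langmuir 1:1 binding model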
observation_type: kon (M⁻¹ s⁻¹)

>>> value_observed("PD1B70 (antibody, V domains shown, Tested as IgG2sigma/kappa; also called PD1H107/PH9L3) VH: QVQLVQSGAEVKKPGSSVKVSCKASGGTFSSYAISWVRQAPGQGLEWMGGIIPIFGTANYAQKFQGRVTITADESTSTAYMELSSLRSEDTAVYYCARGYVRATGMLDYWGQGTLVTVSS VL: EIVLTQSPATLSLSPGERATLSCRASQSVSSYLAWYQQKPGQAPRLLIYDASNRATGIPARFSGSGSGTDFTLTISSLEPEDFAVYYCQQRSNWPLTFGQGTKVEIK")
250000
